B1: ALDH8A1 (parent)
chain: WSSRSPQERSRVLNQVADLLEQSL

variants of: B1; assay: protein stability index of a GFP-peptide fusion (GPS, HEK-293T) (PSI 1-6); higher = more stable; settings: c terminus: a fixed tail appended;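 note: lentivirally expressed fusions sorted by FACS into six bins by GFP to DsRed ratio, PSI derived from sequencing read proportions per bin multiplied by bin number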
measure name: protein stability index

* R11Y | 2.22
* S2K | 2.48
* S5H | 2.14
* L19I | 2.31
* S23D | 4.17
* L13N | 3.54
* W1S | 3.69
* S5L | 2.74
* R11A | 3.4
* L20W | 2.82
* N14K | 1.97
* V12E | 3.88
* R4L | 2.03
* Q15W | 1.79
* E21A | 2.13
* A17P | 3.53
* Q22A | 2.22
* V12N | 3.99
* L19Y | 3.15
* S10K | 1.99
* L13T | 3.5
* E8G | 2.17
